Source: the Immune Epitope Database (IEDB)

Target: HLA-A*02:19
Test: IEDB peptide-MHC binding, purified MHC/direct/fluorescence; filed as Kd, often an IC50 or EC50 that approximates it; bounds were set here for any values at or beyond the usual limits of such assays
Details: source organism: Yersinia pestis CA88-4125
pKd: −log10 of the molar value.

input_sequence | pKd
FLPPQIPVI | 7.74

* * *

Molecular target: HLA-A*31:01
Experiment: IEDB peptide-MHC binding, purified MHC/direct/fluorescence; filed as Kd, often an IC50 or EC50 that approximates it; bounds were set here for any values at or beyond the usual limits of such assays
Conditions: source organism: Francisella tularensis subsp. holarctica LVS
pKd: −log10 of the molar value.
quantity_measured: pKd

input_sequence | quantity_measured | result
FQVNRFTGY | pKd | ≤ 4.70

* * *

Biological target: HLA-C*06:02
Assay: IEDB peptide-MHC binding, purified MHC/competitive/fluorescence; filed as Kd, often an IC50 or EC50 that approximates it; bounds were set here for any values at or beyond the usual limits of such assays
Settings: source organism: Salmonella enterica subsp. enterica serovar Typhi
pKd: −log10 of the molar value.

input_sequence | pKd
MTMLTRWKI | 6.19

* * *

Biological target: HLA-B*39:01
Experiment: IEDB peptide-MHC binding, purified MHC/competitive/fluorescence; filed as Kd, often an IC50 or EC50 that approximates it; bounds were set here for any values at or beyond the usual limits of such assays
Conditions: source organism: Araucaria virus

input_sequence | Kd
AFMATNKAY | ≥ 20 µM

* * *

Target: HLA-A*02:01
Test: IEDB peptide-MHC binding, purified MHC/direct/fluorescence; filed as Kd, often an IC50 or EC50 that approximates it; bounds were set here for any values at or beyond the usual limits of such assays
Conditions: source organism: Bacillus anthracis

input_sequence | unit_abbreviation | Kd
AQMVWIHGV | nM | 1.3
KMNNDVFFM | nM | 2.3

* * *

Molecular target: HLA-A*68:02
Assay: IEDB peptide-MHC binding, purified MHC/direct/fluorescence; filed as Kd, often an IC50 or EC50 that approximates it; bounds were set here for any values at or beyond the usual limits of such assays
Conditions: source organism: Brucella abortus
pKd: −log10 of the molar value.

input_sequence | pKd
GLAEKPNDY | ≤ 4.70

* * *

Target: HLA-A*31:01
Test: IEDB peptide-MHC binding, purified MHC/competitive/fluorescence; filed as Kd, often an IC50 or EC50 that approximates it; bounds were set here for any values at or beyond the usual limits of such assays
Conditions: source organism: Influenza A virus (A/X-31(H3N2))
pKd: −log10 of the molar value.

input_sequence | pKd
GIPLYDAIK | ≤ 4.70

* * *

Molecular target: HLA-A*11:01
Assay: IEDB peptide-MHC binding, purified MHC/competitive/fluorescence; filed as Kd, often an IC50 or EC50 that approximates it; bounds were set here for any values at or beyond the usual limits of such assays
Settings: source organism: Human immunodeficiency virus 1
quantity_measured: Kd

input_sequence | target_desc | result
GTEELKSLY | HLA-A*11:01 | ≥ 20 µM
KSLYNTVAVLY | HLA-A*11:01 | ≥ 20 µM

* * *

Molecular target: HLA-B*08:02
Assay: IEDB peptide-MHC binding, purified MHC/competitive/fluorescence; filed as Kd, often an IC50 or EC50 that approximates it; bounds were set here for any values at or beyond the usual limits of such assays
Conditions: source organism: Corynebacterium glutamicum R
pKd: −log10 of the molar value.
quantity_measured: pKd

input_sequence | result
RYDDGQSIY | ≤ 4.70
